Target: Odorant binding protein 16 (OBP16) (Apis mellifera, UniProt A0ACM8Q9Q1)
Construct: recombinant mature protein
Test: biochemical
Settings: IC50 against 2 uM 1-NPN
Procedure: The probe was excited at 337 nm and emission spectra were recorded between 380 and 450 nm. […] For determining binding constants, the intensity values corresponding to the maximum of fluorescence emission were plotted against free ligand concentrations. Bound ligand was evaluated from the values of fluorescence intensity assuming that the protein was 100% active, with a stoichiometry of 1:1 protein:ligand at saturation. The curves were linearized using Scatchard plots. […]
Binary label based on IC50 with cut-off 4 µM: below gives criterion met, not below gives criterion not met.

# example entries with known answers
[[record]]
compound = "C=CCc1ccc(O)c(OC)c1"
class_assignment = "criterion not met"

[[record]]
compound = "OCCc1ccccc1"
class_assignment = "criterion not met"


Could you now consider this next compound?
-- ask Does the reported IC50 of CC(C)=CCCC(C)CC=O (centres unmarked) stay below 4 µM?
-- reply criterion met

---

Catalogue of pIC50 values
Target: Odorant binding protein 16 (OBP16) (Apis mellifera, UniProt A0ACM8Q9Q1)
Construct: recombinant mature protein
Sequence (A0ACM8Q9Q1 17-135): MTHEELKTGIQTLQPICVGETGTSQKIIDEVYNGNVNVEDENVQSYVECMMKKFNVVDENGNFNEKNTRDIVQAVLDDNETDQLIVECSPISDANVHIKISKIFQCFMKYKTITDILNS
Test: biochemical
Design: competitive fluorescence displacement of 2 uM 1-NPN from purified recombinant OBP (2 uM), Tris pH 7.4
Details: IC50 against 2 uM 1-NPN
Scale for pIC50: -log10 of concentration given in mol/L; no unit attached.

A selection of reference data follows.
[[record]]
compound = "CCCCCCCCCCCC(=O)O [Dodecanoic acid]"
endpoint_name = "pIC50"
endpoint_result = 6.15

[[record]]
compound = "CC(C)=CCC/C(C)=C/C=O [Citral]"
endpoint_name = "pIC50"
endpoint_result = 5.36

[[record]]
compound = "CC(=O)CC/C=C(\\C)CCC=C(C)C [Geranylacetone]"
endpoint_name = "pIC50"
endpoint_result = 5.74

[[record]]
compound = "CCCCC/C=C\\C/C=C\\CCCCCCCC(=O)OC [Methyl linoleate]"
endpoint_name = "pIC50"
endpoint_result = 5.70

[[record]]
compound = "CCCCCCCCCCCCCCCC(=O)OCC [Ethyl palmitate]"
endpoint_name = "pIC50"
endpoint_result = 5.96

[[record]]
compound = "CCCCCC(C)=O [2-Heptanone]"
endpoint_name = "pIC50"
endpoint_result = 4.74


-- ask // fetch pIC50; item: O=C/C=C/c1ccccc1 [Cinnamaldehyde] ; system: Odorant binding protein 16 (OBP16) (Apis mellifera, UniProt A0ACM8Q9Q1)
-- reply 4.70

-- ask Under Odorant binding protein 16 (OBP16) (Apis mellifera, UniProt A0ACM8Q9Q1): report pIC50 of CCCCCCCCCCCCCCCC(=O)OC [Methyl palmitate] .
-- reply 6.05

-- ask Lab note: Odorant binding protein 16 (OBP16) (Apis mellifera, UniProt A0ACM8Q9Q1) assay, enter pIC50 for CC(=O)CCCCCCCC(=O)O [9-Ketodecanoic acid] here
-- reply 5.46

-- ask Please look at Cc1ccccc1C=CC=O [2-Methylcinnamaldehyde] and tell me its recorded pIC50 on Odorant binding protein 16 (OBP16) (Apis mellifera, UniProt A0ACM8Q9Q1).
-- reply 5.15

-- ask With Odorant binding protein 16 (OBP16) (Apis mellifera, UniProt A0ACM8Q9Q1) as the test system, provide measured pIC50 for this compound: CC(C)CCCC(C)CCO (centres unmarked) [3,7-dimethyloctanol]
-- reply 6.30

-- ask # return pIC50 for C=CC(C)(O)CCC=C(C)C (centres unmarked) [Linalool] , test system: Odorant binding protein 16 (OBP16) (Apis mellifera, UniProt A0ACM8Q9Q1)
-- reply 4.74

-- ask GET pIC50 | system: Odorant binding protein 16 (OBP16) (Apis mellifera, UniProt A0ACM8Q9Q1) | item: COc1cc(CCO)ccc1O [Homovanillic alcohol]
-- reply 4.98

-- ask Under Odorant binding protein 16 (OBP16) (Apis mellifera, UniProt A0ACM8Q9Q1), report pIC50 for COc1cc(/C=C/CO)ccc1O [Coniferyl alcohol]
-- reply 4.74

-- ask Consider the compound CCCCCCCC/C=C\CCCCCCCC(=O)O [oleic acid] tested on Odorant binding protein 16 (OBP16) (Apis mellifera, UniProt A0ACM8Q9Q1); state its pIC50.
-- reply 6.05

-- ask Quote Odorant binding protein 16 (OBP16) (Apis mellifera, UniProt A0ACM8Q9Q1) pIC50 for entry OCc1ccccc1 [Benzyl alcohol] .
-- reply 5.01

-- ask Under Odorant binding protein 16 (OBP16) (Apis mellifera, UniProt A0ACM8Q9Q1): report pIC50 of CC(=O)OCCc1ccccc1 [2-Phenylethyl acetate] .
-- reply 5.10
